Source listed as PubChem BioAssay (NCI).

Provide the recorded growth for the entries that follow.
Test system: KM12 colon
protocol: NCI-60 one-dose screen, 48 h (100 = growth as untreated, 0 = no growth, -100 = all killed)
setup-conditions: 10 µM unless noted
Protocol: Growth inhibition of the KM12 human tumor cell line is measured as a screen for anti-cancer activity. Cells are grown in 96 well plates and exposed to the test compound for 48 hours. Compounds are tested at a single concentration, which is 10^-5 M for most compounds. The reported endpoint is percent growth (GI% or GIPRCNT), where numbers from 0 - 100% represent growth inhibition, and numbers from -100% - 0 represent cell death. For example, a value of 40 represents 60% growth inhibition. […]
Compounds without any hit were thinned out: in the full panel of roughly 83,000, 20% have a hit.
One number for each entry, in %.

Solved entries (count: 2):
{"molecule": "CCCCCCCCc1ccc(C(=O)Nc2ccc(C)cc2C(=O)O)cc1", "growth / %": 50.3}
{"molecule": "O=C1Nc2cc(-c3ccc(NS(=O)(=O)c4ccc([N+](=O)[O-])cc4)cc3)ccc2/C1=C/c1ccc[nH]1", "growth / %": 27.5}

Hi there! I need growth for each item below, if you can.
1. COC(=O)CSC1=C(C)C(=O)C(OC)=C(OC)C1=O
2. COc1cc(CNC(=O)C[C@H](C)CCC=C(C)C)ccc1OCc1cn(-c2ccc(Cl)c(Cl)c2)nn1
3. O=C1/C(=C/C=C/c2ccco2)SC(=S)N1CC(=S)C1C=CS(=O)(=O)C1 (stereo not drawn)
4. N#CC1=C(c2cccs2)Nc2c(c(-c3ccccc3)nn2-c2ccccc2)C12C(=O)Nc1ccccc12 (stereo not drawn)
5. CN(C)CCCNC(=S)Nc1ccc(/C=C/c2ccc(Cl)cc2)cc1
6. Cc1ccc(C2CC(c3ccc(NC(=O)Nc4ccccc4)cc3)=NN2c2ccc(S(C)(=O)=O)cc2)cc1 (stereo not drawn)

1: 93.5; 2: 82.7; 3: 89.4; 4: 9.03; 5: -36.8; 6: -2.32
